What relative IC50 was measured for each of the following?
# Tested on: MCF-7
# Protocol details: relative IC50 (midpoint of fitted logistic curve, plateau may be below 50% inhibition; CellTiter-Glo viability); higher = less potent
# Test conditions: 4-OH-tamoxifen in medium 1 µM; 72 h

Below are worked cases with known answers.
- Molecule: "CS(=O)(=O)c1ccc(C(=O)Nc2ccc(Cl)c(-c3ccccn3)c2)c(Cl)c1 [Vismodegib]"
  relative IC50: "> 10 µM"
- Molecule: "C[C@]12C=CC(=O)C=C1CC[C@@H]1[C@@H]2C(=O)C[C@@]2(C)[C@H]1CC[C@]2(O)C(=O)CO [Prednisone]"
  relative IC50: "> 10 µM"
- Molecule: "Cn1c(Nc2ccc(C(F)(F)F)cc2)nc2cc(Oc3ccnc(-c4ncc(C(F)(F)F)[nH]4)c3)ccc21 [RAF265]"
  relative IC50: "> 1 µM"

Kindly review the next molecule as well.
Quickly give me recorded relative IC50 for O=C1CCC(N2C(=O)c3ccccc3C2=O)C(=O)N1 (centres undefined) [Thalidomide] > 10 µM

###

# System: BT-474 Tam2
# Protocol details: relative IC50 (midpoint of fitted logistic curve, plateau may be below 50% inhibition; CellTiter-Glo viability); higher = less potent
# Test conditions: 4-OH-tamoxifen in medium 1 µM; 72 h
Reported endpoint: relative IC50

Below are worked cases with known answers.
- Compound: "Nc1nc2[nH]cc(CCc3ccc(C(=O)N[C@@H](CCC(=O)O)C(=O)O)cc3)c2c(=O)[nH]1"
  relative IC50: "> 10 µM"
- Compound: "CCNC(=O)CCC/C=C\\C[C@@H]1[C@@H](/C=C/[C@@H](O)CCc2ccccc2)[C@H](O)C[C@@H]1O"
  relative IC50: "> 5.5 µM"

Kindly review the next compound as well.
Quickly give me recorded relative IC50 for COc1cc([C@@H]2c3cc4c(cc3[C@@H](O[C@@H]3O[C@@H]5CO[C@@H](C)O[C@H]5[C@H](O)[C@H]3O)[C@H]3COC(=O)[C@H]23)OCO4)cc(OC)c1O [Etoposide] > 10 µM

###

What viability inhibition at highest dose was measured for each of the following?
# Tested on: ZR-75-1 Tam2
# Protocol details: viability inhibition at highest dose (% inhibition); higher = more growth inhibition
# Test conditions: 4-OH-tamoxifen in medium 1 µM; 72 h
One number for each entry.

Below are worked cases with known answers.
- Compound: "CC[C@]1(O)C[C@H]2CN(CCc3c([nH]c4ccccc34)[C@@](C(=O)OC)(c3cc4c(cc3OC)N(C=O)[C@H]3[C@@](O)(C(=O)OC)[C@H](OC(C)=O)[C@]5(CC)C=CCN6CC[C@]43[C@@H]65)C2)C1 [Vincristine] (drug 10000 nM)"
  System name: "ZR-75-1 Tam2"
  Test result: 35.9
- Compound: "Oc1ccc2c(c1)CC[C@H](c1ccccc1)[C@@H]2c1ccc(OCCN2CCCC2)cc1 [Lasofoxifene] (drug 1000 nM)"
  System name: "ZR-75-1 Tam2"
  Test result: 2.17

Kindly review the next compound as well.
Quickly give me recorded viability inhibition at highest dose for NCCCNCCSP(=O)(O)O [Amifostine] (drug 10000 nM) -10.8

###

What relative IC50 was measured for each of the following?
# System: T-47D
# Protocol details: relative IC50 (midpoint of fitted logistic curve, plateau may be below 50% inhibition; CellTiter-Glo viability); higher = less potent
# Test conditions: 4-OH-tamoxifen in medium 0 µM; 72 h

Below are worked cases with known answers.
- Molecule: "CC1(C)NC(=O)N(c2ccc([N+](=O)[O-])c(C(F)(F)F)c2)C1=O [Nilutamide]"
  Test result: "> 10 µM"
- Molecule: "CC1(C)CNc2cc(NC(=O)c3cccnc3NCc3ccncc3)ccc21 [Motesanib (AMG-706)]"
  Test result: "> 10 µM"
- Molecule: "CCN(CC)CCNC(=O)c1c(C)[nH]c(/C=C2\\C(=O)Nc3ccc(F)cc32)c1C"
  Test result: "> 1 µM"
- Molecule: "NC(=O)c1ccc(I)c([N+](=O)[O-])c1"
  Test result: "> 10 µM"
- Molecule: "Cc1cccc(-c2nn3c(c2-c2ccnc4ccc(C(N)=O)cc24)CCC3)n1"
  Test result: "> 1 µM"

Provide reported relative IC50 for each item, in the same order as listed.
1. Nc1cccc2c1CN(C1CCC(=O)NC1=O)C2=O (centres undefined) [Lenalidomide]
2. O=C(O)C(=O)O.[NH-][C@@H]1CCCC[C@H]1[NH-].[Pt+2] [Oxaliplatin]

["> 10 µM", "> 10 µM"]

Provide reported relative IC50 for each item, in the same order as listed.
1. CCCS(=O)(=O)Nc1ccc(F)c(C(=O)c2c[nH]c3ncc(-c4ccc(Cl)cc4)cc23)c1F [Vemurafenib (PLX4032)]
2. Cc1ccc(-c2cc(C(F)(F)F)nn2-c2ccc(S(N)(=O)=O)cc2)cc1 [Celecoxib]

1. > 10 µM
2. > 10 µM

###

# Test system: T-47D Tam2
# Protocol details: viability inhibition at highest dose (% inhibition); higher = more growth inhibition
# Test conditions: 4-OH-tamoxifen in medium 1 µM; 72 h
Reported endpoint: viability inhibition at highest dose

- Molecule: "Cc1cc(Nc2cc(CN3CCOCC3)c3nc(C)c(Cc4ccc(Cl)cc4F)n3n2)n[nH]1 (drug 10000 nM)"
  System name: "T-47D Tam2"
  Test result: 46.2
- Molecule: "CO[C@@]12[C@H](COC(N)=O)C3=C(C(=O)C(C)=C(N)C3=O)N1C[C@@H]1N[C@@H]12 [Mitomycin C] (drug 10000 nM)"
  System name: "T-47D Tam2"
  Test result: 10.8
- Molecule: "c1cc(CN2CCCNCCNCCCNCC2)ccc1CN1CCCNCCNCCCNCC1 [Plerixafor] (drug 2500 nM)"
  System name: "T-47D Tam2"
  Test result: 1.1
- Molecule: "Cc1c(CN2CCN(C(=O)[C@H](C)O)CC2)sc2c(N3CCOCC3)nc(-c3cnc(N)nc3)nc12 [GDC-0980] (drug 10000 nM)"
  System name: "T-47D Tam2"
  Test result: 64
- Molecule: "CCCS(=O)(=O)Nc1ccc(F)c(C(=O)c2c[nH]c3ncc(-c4ccc(Cl)cc4)cc23)c1F [Vemurafenib (PLX4032)] (drug 10000 nM)"
  System name: "T-47D Tam2"
  Test result: 21.7

Provide reported viability inhibition at highest dose for each item, in the same order as listed.
1. Cc1c(C(=O)Nc2ccc(N3C[C@@H](C)O[C@@H](C)C3)nc2)cccc1-c1ccc(OC(F)(F)F)cc1 [Erismodegib (NVP-LDE225)] (drug 10000 nM)
2. Nc1nc(Cl)nc2c1ncn2[C@@H]1O[C@H](CO)[C@@H](O)[C@@H]1F [Clofarabine] (drug 10000 nM)

1: 19.2; 2: 27.8

###

# Test system: MCF-7
# Protocol details: viability inhibition at highest dose (% inhibition); higher = more growth inhibition
# Test conditions: 4-OH-tamoxifen in medium 0 µM; 72 h
Where a name gives a salt, the structure may show the parent alone.
Reported endpoint: viability inhibition at highest dose
Numbers only.

- Compound: "C1CN1c1nc(N2CC2)nc(N2CC2)n1 [Triethylenemelamine] (drug 10000 nM)"
  System name: "MCF-7"
  viability inhibition at highest dose: 1.71
- Compound: "c1ccc([C@H]2CN3CCSC3=N2)cc1 [Levamisole, (Tetramisole hydrochloride)] (drug 10000 nM)"
  System name: "MCF-7"
  viability inhibition at highest dose: -9.38
- Compound: "CC1(C)NC(=O)N(c2ccc([N+](=O)[O-])c(C(F)(F)F)c2)C1=O [Nilutamide] (drug 10000 nM)"
  System name: "MCF-7"
  viability inhibition at highest dose: -15.4
- Compound: "O=C(c1ccc(OCCN2CCCCC2)cc1)c1c(-c2ccc(O)cc2)sc2cc(O)ccc12 [Raloxifene HCl] (drug 10000 nM)"
  System name: "MCF-7"
  viability inhibition at highest dose: 33.2
- Compound: "OC[C@H]1O[C@@H](n2cnc3c2N=CNC[C@H]3O)C[C@@H]1O [Pentostatin] (drug 10000 nM)"
  System name: "MCF-7"
  viability inhibition at highest dose: 47.4
- Compound: "O=C(Nc1c[nH]nc1-c1nc2ccc(CN3CCOCC3)cc2[nH]1)NC1CC1 [AT9283] (drug 1000 nM)"
  System name: "MCF-7"
  viability inhibition at highest dose: -25.8

Provide reported viability inhibition at highest dose for each item, in the same order as listed.
1. CN1CCC(COc2cnc(-c3cccc(Cn4nc(-c5cccc(C#N)c5)ccc4=O)c3)nc2)CC1 (drug 1000 nM)
2. C=CC[C@@H]1/C=C(\C)C[C@H](C)C[C@H](OC)[C@H]2O[C@@](O)(C(=O)C(=O)N3CCCC[C@H]3C(=O)O[C@H](/C(C)=C/[C@@H]3CC[C@@H](O)[C@H](OC)C3)[C@H](C)[C@@H](O)CC1=O)[C@H](C)C[C@@H]2OC [Tacrolimus (FK 506)] (drug 10000 nM)
3. CNNCc1ccc(C(=O)NC(C)C)cc1 [Procarbazine] (drug 10000 nM)
4. COc1cc2nccc(Oc3ccc(NC(=O)Nc4cc(C)on4)c(Cl)c3)c2cc1OC [Tivozanib (AV-951)] (drug 10000 nM)
5. NC(=O)c1ccc(I)c([N+](=O)[O-])c1 (drug 10000 nM)
6. O=C(CCCCCCC(=O)Nc1ccc([C@H]2O[C@@H](CSc3nc(-c4ccccc4)c(-c4ccccc4)o3)C[C@@H](c3ccc(CO)cc3)O2)cc1)NO [Tubacin] (drug 10000 nM)
7. O=C(/C=C/c1cccc(S(=O)(=O)Nc2ccccc2)c1)NO [Belinostat (PXD101)] (drug 10000 nM)

1: -4.34; 2: 25.3; 3: -15.7; 4: 24.5; 5: 2.33; 6: 55.1; 7: 89.5
